Reference source: ChEMBL document CHEMBL3351462

Target: Nuclear receptor ROR-gamma (Homo sapiens)
Sequence (whole entry): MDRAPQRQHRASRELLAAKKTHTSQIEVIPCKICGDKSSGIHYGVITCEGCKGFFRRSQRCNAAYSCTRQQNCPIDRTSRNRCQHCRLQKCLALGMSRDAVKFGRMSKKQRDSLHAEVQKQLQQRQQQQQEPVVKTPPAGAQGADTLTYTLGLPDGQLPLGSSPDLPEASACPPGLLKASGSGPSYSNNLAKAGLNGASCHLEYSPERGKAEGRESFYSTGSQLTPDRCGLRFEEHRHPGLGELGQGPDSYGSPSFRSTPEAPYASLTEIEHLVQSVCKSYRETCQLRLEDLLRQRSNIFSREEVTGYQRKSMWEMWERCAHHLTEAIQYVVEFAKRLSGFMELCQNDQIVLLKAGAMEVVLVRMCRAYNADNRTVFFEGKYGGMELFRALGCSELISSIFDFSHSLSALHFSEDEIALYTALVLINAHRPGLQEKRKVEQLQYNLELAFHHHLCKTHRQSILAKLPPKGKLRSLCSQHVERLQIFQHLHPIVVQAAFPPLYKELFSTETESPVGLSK
Experiment: Modulator activity at GAL4-tagged human RORgammat ligand binding domain expressed HEK293T cells by luciferase reporter gene assay relative to untreated control
Type: cell-based
Conditions: HEK-293T, concentration not given here
# key: entry, value: inhibition
Could you give me the number in %? Just the number is fine.

Consider the reported inhibition for these compounds:
OC(c1ccncc1)(c1ccc2nc(Cl)c(Cc3ccc(Cl)cc3)c(Cl)c2c1)c1cncs1 (centres undefined) ... 85
COc1nc2ccc(C(O)(c3sc(C)nc3C)c3cnnn3C)cc2c(Cl)c1Cc1ccc(C(F)(F)F)cc1 (centres undefined) ... 94
Cn1cncc1C(O)(c1ccc(Cl)cc1)c1ccc2nc(Cl)c(Cc3ccccc3)c(Cl)c2c1 (centres undefined) ... 72

stdin: Quote inhibition reported for Cn1cncc1C(O)(c1ccc(C(F)(F)F)nc1)c1ccc2nc(C#N)c(Cc3ccc(-n4cccn4)cc3)c(C#N)c2c1 (centres undefined) please.
stdout: 99

###

Target: UniProt P51449
Experiment: Modulator activity at GAL4-tagged human RORgammat ligand binding domain expressed HEK293T cells by luciferase reporter gene assay
value-kind: IC50 (nM)
Report the figure in nM without appending any unit label.

stdin: Tell me measured IC50 for OC(c1ccncc1)(c1ccc2nc(Cl)c(Cc3ccc(Cl)cc3)c(Cl)c2c1)c1cncs1 (stereo unspecified) please.
stdout: 6.5
